system: MOLT-4 leukemia; test: NCI tumour cell line growth inhibition, 48 h
In this section, each of the compounds is paired with its reported log10 of TGI.
All values: log10 TGI [µM].

As a guide, the following entries are already answered.
[
  {
    "Compound": "Cc1c(C(=O)/C=C/c2ccccc2[N+](=O)[O-])[n+](=O)c2ccccc2n1[O-]",
    "log10 of TGI": 1.47
  },
  {
    "Compound": "C[C@]12C/C(=C/O)C(=O)C(O)=C1CC[C@@H]1C2CC[C@@]2(C)C1CC[C@@H]2O (some centres not stated)",
    "log10 of TGI": 1.82
  },
  {
    "Compound": "CN(C)c1ccc(Cc2cc3c(O)ccc(O)c3cc(Cc3ccc(N(C)C)cc3)c2=O)cc1",
    "log10 of TGI": 0.94
  },
  {
    "Compound": "O=[N+]([O-])/C(Cl)=C(\\NCCN/C(C(Cl)=C(Cl)Cl)=C(/Cl)[N+](=O)[O-])C(Cl)=C(Cl)Cl",
    "log10 of TGI": 1.91
  },
  {
    "Compound": "O=C(/C=C/c1cccc(O)c1)c1cccc(-n2cc(-c3ccc4ccccc4c3)[nH]c2=O)c1",
    "log10 of TGI": 0.72
  }
]

Input: Report log10 of TGI for `Cc1ccc(NC(=O)/C(Cc2nc3ccc([N+](=O)[O-])cc3[nH]c2=O)=N\NC(=O)C[n+]2ccccc2)c(C)c1` please.
Output: 1.94

Input: Report log10 of TGI for `COc1ccc(-n2nc(C)c3c(Nc4ccc(NC(=O)Nc5ccc(Cl)c(C(F)(F)F)c5)cc4)ncnc32)cc1` please.
Output: 0.87

Input: Report log10 of TGI for `COc1cc2nc(-c3ccc(C(F)(F)F)cc3)cc(OCCCN3CCCC3)c2cc1OC` please.
Output: 0.71

Input: Report log10 of TGI for `CC(C)[Si](OC/C(=C/COC(C)(C)C)[C@H]1CC=C(C(=O)c2ccccc2N2CN(C)C(=O)N(C)C2)C1)(C(C)C)C(C)C` please.
Output: 0.22

Input: Report log10 of TGI for CC(C)C1=C(O)C2=C(C(=O)C1=O)C1(C)CCCC(C)(C)C1C(O)C2OC=O (configuration not stated) please.
Output: 0.84

Input: Report log10 of TGI for `COc1nc2c(N3CCCC3)nc(N3CCNCC3)nc2nc1NCc1ccccc1` please.
Output: 0.67

Input: Report log10 of TGI for `CCCCCCCCCCCCCC[n+]1cccc(C(N)=O)c1` please.
Output: 0.63

Input: Report log10 of TGI for `O=C1/C(=C/c2ccc([N+](=O)[O-])cc2)COc2ccc(O)cc21` please.
Output: 1.58

Input: Report log10 of TGI for COc1ccc(C2c3cc4c(cc3OC(NCCO)C2C)OCO4)cc1 (configuration not stated) please.
Output: 1.70

Input: Report log10 of TGI for `c1cnn2ncc(-c3ccnc(Nc4ccc5c(c4)OCCO5)n3)c2c1` please.
Output: -0.21

---

tested on: SF-539 CNS; assay: NCI tumour cell line growth inhibition, 48 h; in the data active means GI50 below about 0.43 µM; inactive means the rest
Outcomes you can answer with include only these: active, inactive

[
  {
    "Compound": "CCn1c(-c2nonc2N)nc2ccncc21",
    "Target system": "SF-539 CNS",
    "Classification": "inactive"
  },
  {
    "Compound": "O=C1/C(=C/c2ccc([N+](=O)[O-])cc2)COc2ccc(O)cc21",
    "Target system": "SF-539 CNS",
    "Classification": "inactive"
  },
  {
    "Compound": "OCc1ccc(N2CCOCC2)cc1Cl",
    "Target system": "SF-539 CNS",
    "Classification": "inactive"
  }
]

Input: Call for entry `COc1ccc(-c2cnoc2-c2cc(OC)c3c(c2)OCCO3)cc1` :
Output: active

Input: Call for entry `N.N.N.N.N.O=S(=O)([O-])S(=O)(=O)[O-].[Co+3]` :
Output: inactive

Input: Call for entry `O=C(NCCN1CCNCC1)c1ccc(Nc2nc3ccccc3c3occc23)cc1` :
Output: inactive

Input: Call for entry CC1c2ccccc2N=C2SC(=S)N3CCN=C3N21 (stereo not drawn) :
Output: inactive

Input: Call for entry `O=C(/C=C/c1cccc(O)c1)c1cccc(-n2cc(-c3ccc4ccccc4c3)[nH]c2=O)c1` :
Output: inactive
